B1: MMP1 (parent)
chain: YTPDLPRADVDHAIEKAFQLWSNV

# Variants of: B1
# Test Method Notes: protein stability index of a GFP-peptide fusion (GPS, HEK-293T) (PSI 1-6); higher = more stable;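 further: lentivirally expressed fusions sorted by FACS into six bins by GFP to DsRed ratio, PSI derived from sequencing read proportions per bin multiplied by bin number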
# Protocol Conditions: c terminus: a fixed tail appended
Short version: protein stability index at least 3 is label 1, less is label 0.

Below are worked cases with known answers.
E15C | label 0
D4V | label 1
V10M | label 0

input: Evaluate "I14D" : protein stability index at minimum 3?
output: label 0

input: Can "V24I" be said to have protein stability index at or above 3?
output: label 0

input: Has "E15D" a recorded protein stability index greater than or equal to 3?
output: label 0

input: Hello, I need to know if "L5N" has measured protein stability index not below 3. Thanks!
output: label 0

input: Quick check: does "A8L" have protein stability index greater than or equal to 3?
output: label 0

input: Is it the case that "V10R" has protein stability index reaching or exceeding 3?
output: label 0

input: Exam item: decide whether the reported protein stability index for "Y1D" is at least 3.
output: label 1
